assay: Study KAR5585-101 Part 1 (SAD): plasma pharmacokinetics after a single oral dose of KAR5585, fasting and fed (incl. dose proportionality and food effect); settings: human, plasma, po, 400 mg, AUC0-12, KAR5417 after 400 mg KAR5585 single oral, fed, Cohort 3B; Geo. Mean
MEASUREMENT_LABEL: AUC(0-t)
# include the unit after the value

Problem: Looking for the measured AUC(0-t) of Nc1nc(O[C@H](c2ccc(Cl)cc2-c2ccccc2)C(F)(F)F)cc(N2CCC3(CC2)CN[C@H](C(=O)O)C3)n1 [KAR5417] , can you help?
Solution: 4170 ng·h/mL

====

assay: Part 1 (SAD): urine pharmacokinetics (amount excreted, renal clearance) after a single oral dose of KAR5585; format: in vivo, human; details: human, urine and plasma, po, 200 mg, KAR5417; 200 mg KAR5585 single oral dose; mean; read-out: CLR (converted)
MEASUREMENT_LABEL: CL renal (mL/min)
Hi! Could you send only the number? It should be in mL/min, unit omitted.

Problem: Looking for the measured CL renal of "Nc1nc(O[C@H](c2ccc(Cl)cc2-c2ccccc2)C(F)(F)F)cc(N2CCC3(CC2)CN[C@H](C(=O)O)C3)n1" , can you help?
Solution: 2.67

====

test: Study KAR5585-101 Part 1 (SAD): plasma pharmacokinetics after a single oral dose of KAR5585, fasting and fed (incl. dose proportionality and food effect); details: human, plasma, po, 400 mg, Vz/F, 400 mg KAR5585 single oral, fasted, Cohort 3A; Geo. Mean
MEASUREMENT_LABEL: Vd/F (L)
Hi! Could you send only the number? It should be in L, unit omitted.

Problem: Looking for the measured Vd/F of CCOC(=O)[C@@H]1CC2(CCN(c3cc(O[C@H](c4ccc(Cl)cc4-c4ccccc4)C(F)(F)F)nc(N)n3)CC2)CN1 [KAR5585] , can you help?
Solution: 8100

====

assay: Study KAR5585-101 Part 1 (SAD): plasma pharmacokinetics after a single oral dose of KAR5585, fasting and fed (incl. dose proportionality and food effect); conditions: human, plasma, po, Vz/F, range across dose levels, single oral KAR5585
MEASUREMENT_LABEL: Vd/F

Problem: Looking for the measured Vd/F of "CCOC(=O)[C@@H]1CC2(CCN(c3cc(O[C@H](c4ccc(Cl)cc4-c4ccccc4)C(F)(F)F)nc(N)n3)CC2)CN1" , can you help?
Solution: 5680 to 25100 L

====

assay: clinical; settings: human, in vivo, 400 mg/dose
MEASUREMENT_LABEL: Cmax
# include the unit after the value

Problem: Looking for the measured Cmax of "CCOC(=O)[C@@H]1CC2(CCN(c3cc(O[C@H](c4ccc(Cl)cc4-c4ccccc4)C(F)(F)F)nc(N)n3)CC2)CN1" , can you help?
Solution: 110 ng/mL

====

assay: Study KAR5585-101 Part 1 (SAD): plasma pharmacokinetics after a single oral dose of KAR5585, fasting and fed (incl. dose proportionality and food effect); conditions: human, plasma, po, 400 mg, C12, 400 mg KAR5585 single oral, fed, Cohort 3B; Mean
MEASUREMENT_LABEL: concentration at 12 h (µg/mL)
Hi! Could you send only the number? It should be in µg/mL, unit omitted.

Problem: Looking for the measured concentration at 12 h of CCOC(=O)[C@@H]1CC2(CCN(c3cc(O[C@H](c4ccc(Cl)cc4-c4ccccc4)C(F)(F)F)nc(N)n3)CC2)CN1 [KAR5585] , can you help?
Solution: 0.021

====

assay: Study KAR5585-101 Part 1 (SAD): plasma pharmacokinetics after a single oral dose of KAR5585, fasting and fed (incl. dose proportionality and food effect); conditions: human, plasma, po, 2000 mg, Plasma AUC0-96, KAR5417 in plasma; 2000 mg KAR5585 single oral dose; mean
MEASUREMENT_LABEL: AUC(0-t)

Problem: Looking for the measured AUC(0-t) of "Nc1nc(O[C@H](c2ccc(Cl)cc2-c2ccccc2)C(F)(F)F)cc(N2CCC3(CC2)CN[C@H](C(=O)O)C3)n1" , can you help?
Solution: 10700 ng·h/mL

====

test: Study KAR5585-101 Part 1 (SAD): plasma pharmacokinetics after a single oral dose of KAR5585, fasting and fed (incl. dose proportionality and food effect); conditions: human, plasma, po, 2000 mg, tmax, 2000 mg KAR5585 single oral, fasted, Cohort 6; Median
MEASUREMENT_LABEL: Tmax (h)
Hi! Could you send only the number? It should be in h, unit omitted.

Problem: Looking for the measured Tmax of CCOC(=O)[C@@H]1CC2(CCN(c3cc(O[C@H](c4ccc(Cl)cc4-c4ccccc4)C(F)(F)F)nc(N)n3)CC2)CN1 [KAR5585] , can you help?
Solution: 2

====

assay: Study KAR5585-101 Part 1 (SAD): plasma pharmacokinetics after a single oral dose of KAR5585, fasting and fed (incl. dose proportionality and food effect); conditions: human, plasma, po, 700 mg, AUC0-12, KAR5417 after 700 mg KAR5585 single oral, fasted, Cohort 4; Geo. Mean
MEASUREMENT_LABEL: AUC(0-t)
# include the unit after the value

Problem: Looking for the measured AUC(0-t) of "Nc1nc(O[C@H](c2ccc(Cl)cc2-c2ccccc2)C(F)(F)F)cc(N2CCC3(CC2)CN[C@H](C(=O)O)C3)n1" , can you help?
Solution: 3050 ng·h/mL

====

Entries annotated with measured Cmax
assay: Study KAR5585-101 Part 1 (SAD): plasma pharmacokinetics after a single oral dose of KAR5585, fasting and fed (incl. dose proportionality and food effect); settings: human, plasma, po, 400 mg, Cmax, Geometric Mean, Cohort 3B (Fed), 400 mg KAR5585 single oral dose, fed
Hi! Could you send only the number? It should be in ng/mL, unit omitted.

Problem: Looking for the measured Cmax of CCOC(=O)[C@@H]1CC2(CCN(c3cc(O[C@H](c4ccc(Cl)cc4-c4ccccc4)C(F)(F)F)nc(N)n3)CC2)CN1 [KAR5585] , can you help?
Solution: 165

Here's the next entry for you.
Problem: Looking for the measured Cmax of Nc1nc(O[C@H](c2ccc(Cl)cc2-c2ccccc2)C(F)(F)F)cc(N2CCC3(CC2)CN[C@H](C(=O)O)C3)n1 [KAR5417] , can you help?
Solution: 831

====

assay: Study KAR5585-101 Part 1 (SAD): plasma pharmacokinetics after a single oral dose of KAR5585, fasting and fed (incl. dose proportionality and food effect); conditions: human, plasma, po, 400 mg, AUC0-12, KAR5417 after 400 mg KAR5585 single oral, fasted, Cohort 3A; Mean
MEASUREMENT_LABEL: AUC(0-t) (ng·h/mL)
Hi! Could you send only the number? It should be in ng·h/mL, unit omitted.

Problem: Looking for the measured AUC(0-t) of "Nc1nc(O[C@H](c2ccc(Cl)cc2-c2ccccc2)C(F)(F)F)cc(N2CCC3(CC2)CN[C@H](C(=O)O)C3)n1" , can you help?
Solution: 2690

====

experiment: Study KAR5585-101 Part 1 (SAD): plasma pharmacokinetics after a single oral dose of KAR5585, fasting and fed (incl. dose proportionality and food effect); conditions: human, plasma, po, 100 mg, AUC0-tau, 100 mg KAR5585 single oral, fasted, Cohort 1; Geo. Mean
MEASUREMENT_LABEL: AUC (ng·h/mL)
Hi! Could you send only the number? It should be in ng·h/mL, unit omitted.

Problem: Looking for the measured AUC of "CCOC(=O)[C@@H]1CC2(CCN(c3cc(O[C@H](c4ccc(Cl)cc4-c4ccccc4)C(F)(F)F)nc(N)n3)CC2)CN1" , can you help?
Solution: 27.4

====

experiment: clinical; settings: human, plasma, oral, 100 mg/dose
MEASUREMENT_LABEL: Cmax (ng/mL)
Hi! Could you send only the number? It should be in ng/mL, unit omitted.

Problem: Looking for the measured Cmax of CCOC(=O)[C@@H]1CC2(CCN(c3cc(O[C@H](c4ccc(Cl)cc4-c4ccccc4)C(F)(F)F)nc(N)n3)CC2)CN1 [KAR5585] , can you help?
Solution: 15.8

====

test: Study KAR5585-101 Part 1 (SAD): plasma pharmacokinetics after a single oral dose of KAR5585, fasting and fed (incl. dose proportionality and food effect); conditions: human, plasma, po, 2000 mg, AUC0-tau, 2000 mg KAR5585 single oral, fasted, Cohort 6; Geo. Mean
MEASUREMENT_LABEL: AUC (ng·h/mL)
Hi! Could you send only the number? It should be in ng·h/mL, unit omitted.

Problem: Looking for the measured AUC of CCOC(=O)[C@@H]1CC2(CCN(c3cc(O[C@H](c4ccc(Cl)cc4-c4ccccc4)C(F)(F)F)nc(N)n3)CC2)CN1 [KAR5585] , can you help?
Solution: 638

====

experiment: Study KAR5585-101 Part 1 (SAD): plasma pharmacokinetics after a single oral dose of KAR5585, fasting and fed (incl. dose proportionality and food effect); conditions: human, plasma, po, 100 mg, AUC0-∞, 100 mg KAR5585 single oral, fasted, Cohort 1; Geo. Mean
MEASUREMENT_LABEL: AUC(0-inf)
# include the unit after the value

Problem: Looking for the measured AUC(0-inf) of "CCOC(=O)[C@@H]1CC2(CCN(c3cc(O[C@H](c4ccc(Cl)cc4-c4ccccc4)C(F)(F)F)nc(N)n3)CC2)CN1" , can you help?
Solution: 47.5 ng·h/mL
